- TEST: Cytotoxicity against human SH-SY5Y cells assessed as reduction in cell viability incubated for 24 hrs by propidium iodide staining based fluorescence analysis
- Assay type: toxicity
- STATED_CONDITIONS: read-out: LD50
READOUT_LABEL: CC50 at 24 h

Field request: CC50 at 24 h | item: "O=C(Nc1ccc(OC(F)(F)F)cc1)NC1CCN(C(=O)CCNc2c3c(nc4cc(Cl)ccc24)CCCC3)CC1" 92.8 µM

Field request: CC50 at 24 h | item: "CC1=C[C@@H]2Cc3nc4cc(Cl)ccc4c(NCCCCC(=O)N4CCC(NC(=O)Nc5ccc(OC(F)(F)F)cc5)CC4)c3[C@H](C1)C2" > 100 µM

Field request: CC50 at 24 h | item: "O=C(Nc1ccc(OC(F)(F)F)cc1)NC1CCN(C(=O)CCCNc2c3c(nc4cc(Cl)ccc24)CCCC3)CC1" > 100 µM

Field request: CC50 at 24 h | item: "O=C(Nc1ccc(OC(F)(F)F)cc1)NC1CCN(C(=O)CCCCNc2c3c(nc4cc(Cl)ccc24)CCCC3)CC1" > 100 µM
